Data provenance: patent USRE39591E1

- Test system: up to 32 different microorganisms
- Assay Text: in vitro antibacterial activity (MIC), agar dilution on Brain Heart Infusion (BHI) agar with Steers replicator
- Assay type: cell-based
- Experimental Parameters: organism code VV; unit assumed
- Experimental: Representative compounds of the present invention were assayed in vitro for antibacterial activity as follows: Twelve petri dishes containing successive aqueous dilutions of the test compound mixed with 10 mL of sterilized Brain Heart Infusion (BHI) agar (Difco 0148-01-5) were prepared. Each plate was inoculated with 1:100 (or 1:10 for slow-growing strains, such as Micrococcus and Streptococcus) dilutions of up to 32 different microorganisms, using a Steers replicator block. […]
Readout Kind: MIC (µg/mL)
Return type: number; implicit unit µg/mL.

Prompt line: I would be grateful if you could share the reported MIC for CCC1OC(=O)C(C)C(=O)C(C)C(OC2OC(C)CC(N(C)C)C2O)C(C)(OCC=Cc2ccc3[nH]c4ccccc4c3c2)CC(C)C(=O)C(C)C2NC(=O)OC12C (centres unmarked) [Example 204, R is —CH2CH═CH-(3-carbazolyl)] .
Response line: 0.1
